B1: glmS ribozyme (parent)
chain: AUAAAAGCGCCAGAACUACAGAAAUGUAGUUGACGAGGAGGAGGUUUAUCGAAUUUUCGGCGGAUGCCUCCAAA

Variants of: B1
Experiment: self-cleavage kobs at 2500 uM GlcN6P; higher = faster cleavage; RNA array
Settings: with glucosamine-6-phosphate
Fewer inactive variants are shown than the library holds.
Where self-cleavage kobs at 2500 uM GlcN6P equals or exceeds 0.0001 s⁻¹, the correct label is MET; where it does not, the label is NOT MET.

- SEQUENCE_RECORD: "AUAAAAGCGCCAGAACUACAGAAAUGUAGUUGAUGAGGAGGAGGUUUAUCGAAUUUUCGGCGGAUGCCUCUAAA"
  CAT: "NOT MET"
- SEQUENCE_RECORD: "AUAAAAGCGCCAAAACUACAGAAAUGUAGUUGACGAGGAGGAGGUUUAUCGAAAUUUCGGCGGAUGCCUCCAAA"
  CAT: "MET"
- SEQUENCE_RECORD: "AUAAAAGCGCCAGAGCUACAGAAAUGUAGUUGACUAGGAGGAGGUUUAUCGAAUUUUCGGCGGAUGCCUCCAAA"
  CAT: "NOT MET"

Threshold query (self-cleavage kobs at 2500 uM GlcN6P >= 0.0001 s⁻¹) on AUAAAAGCGCCAGAAUUACAGAAAUGUAUUUGACGAGGAGGAGGUUUAUCGAAUUUUCGGCGGAUGCCUGAAAA
NOT MET

Threshold query (self-cleavage kobs at 2500 uM GlcN6P >= 0.0001 s⁻¹) on AUAAAAGCGCCAGAACUACAGAAAUGUAGUUGACGAGGAGGAGGUUUAUGGAAUUUUCUGCGGAUGCCUCCAAA
MET

Threshold query (self-cleavage kobs at 2500 uM GlcN6P >= 0.0001 s⁻¹) on AUAAAAGCGCCAGAACUACAGAAAUGUAGUUGACGAAGAGGAGGUUUAUCGAAUUUUCGGCGGAUACCUCCAAA
MET

Threshold query (self-cleavage kobs at 2500 uM GlcN6P >= 0.0001 s⁻¹) on AUAAAAGCGCCAGAACUACAGAAAUGUAGUUGACGAGGAGGAGGAUUAUCGAGUUUUCGGCGGAUGCCUCUAAA
MET

Threshold query (self-cleavage kobs at 2500 uM GlcN6P >= 0.0001 s⁻¹) on AUAAAUGCGCCAGAACUACAGAAAUGUAGAUGCCGAGGAGGAGGGUUAUCGAAUUUUAGGCGGAUGCCUCCAAA
NOT MET

Threshold query (self-cleavage kobs at 2500 uM GlcN6P >= 0.0001 s⁻¹) on AUAAAAGCGCUAGAACUACAGAAAUGUAGUUGACGAGGAGGAGGUAUAUCGAAUUUUCGGCUGAUGCCUCCAAA
NOT MET

Threshold query (self-cleavage kobs at 2500 uM GlcN6P >= 0.0001 s⁻¹) on AUAAAAGCGCCAGAACUACAGAAAUGUAGUUAACGAGGAAGAGGUUUAUCGAAUUUUCGGCGGAUGCCGCCAAA
NOT MET

Threshold query (self-cleavage kobs at 2500 uM GlcN6P >= 0.0001 s⁻¹) on AUAAAAGCGCCAGAACUACAGAAAUGUAGUUGACGAGGAGGAGGUUUACCGAAUCUUCGGCGGAUGCCUGCAAA
NOT MET

Threshold query (self-cleavage kobs at 2500 uM GlcN6P >= 0.0001 s⁻¹) on AUAAAAGCACCAGAACUACAGAAAUGUAGUUGACGAGGAGGAGGUUUAUCGAAUUUUCGGCGAAUGCCUCCAAA
NOT MET

Threshold query (self-cleavage kobs at 2500 uM GlcN6P >= 0.0001 s⁻¹) on AUAAAAGCGCCCGAACUACAGAAAUGUAGUUGACGAGGAGGAGGUUUAUCGAAUUUUCGGCGGAUGCAUCCAAA
NOT MET

Threshold query (self-cleavage kobs at 2500 uM GlcN6P >= 0.0001 s⁻¹) on AUAAAAGCGCCAGAACUACAGAAAUGUAGUUGACGAGAAGGAGGUUUCUCGAAUUUUCGGCGGAUGCCUCCAAA
NOT MET

Threshold query (self-cleavage kobs at 2500 uM GlcN6P >= 0.0001 s⁻¹) on AUAAAAGCGCCGGAAUUACAGAAAUGUAAUUGACGAGGAAGUGGGUUAUCGAAUUUUCGGCGGAUGCCUCCAAA
NOT MET

Threshold query (self-cleavage kobs at 2500 uM GlcN6P >= 0.0001 s⁻¹) on AUAAAAGCGCCAGAACUACAGAAAUGUAGUUGACGAGGAGGAGGUUUAUCGAAUUUUCGGCGGAUUCCGCCAAA
NOT MET

Threshold query (self-cleavage kobs at 2500 uM GlcN6P >= 0.0001 s⁻¹) on AUAAAAGCGCCAGAACUACAGAAAUGUACUUGACGAGGAGCAGGUUUAUCGAAUUUUCGGCGGAUGCGUCCAAA
NOT MET
